Tested on: SW-620
Experiment: NCI tumour cell line growth inhibition, 48 h
Calls of active or inactive are those of the source. No stated cut-off is given here; in the data, active = GI50 up to about 1.1 µM and inactive = higher.
measured property: GI50

# count of solved cases: 3
CC(=O)/C=C/c1ccc(C)cc1 : > 100 µM (inactive)
CCOC(=O)C1(Cc2ccc3ccccc3c2)CCCCC(=O)N1 (stereo not drawn) : 27.5 µM (inactive)
CN1CCC2(c3ccccc3)CC(=O)/C(=C/c3ccc(Cl)c(Cl)c3)C1C2.[O-][Cl+3]([O-])([O-])O (stereo not drawn) : 2.59 µM (inactive)

Incoming: Lookup: GI50 / SW-620 / COc1ccc(-c2c3c(n(C4OC(COC(C)=O)C(OC(C)=O)C(OC(C)=O)C4OC(C)=O)c(=S)c2C#N)CCCC3)cc1 (stereo not drawn)
Outgoing: 51.5 µM (inactive)

Incoming: Lookup: GI50 / SW-620 / COc1ccc(NC(S)=Nc2ccccc2)cc1
Outgoing: > 100 µM (inactive)

Incoming: Lookup: GI50 / SW-620 / COc1ccc(/C=N/n2cnc3[nH]c(C)c(Cc4ccccc4)c3c2=N)cc1
Outgoing: 57.1 µM (inactive)

Incoming: Lookup: GI50 / SW-620 / CC(C)(C)c1cc(C(C)(C)C)c(SS(=O)(=O)O)c(O)c1O
Outgoing: 51.4 µM (inactive)

Incoming: Lookup: GI50 / SW-620 / C/C(=N/O)c1sc(-c2nc(C)c(/C(C)=N\O)s2)nc1C
Outgoing: > 100 µM (inactive)
